Experiment: Phase I dose-escalation study, plasma pharmacokinetics
Type: in vivo, human
Conditions: human, plasma; 8 mg single oral dose, Cycle 1 Day 1; read-out: Tmax (hr), Median
measurement_kind: Tmax (h)

• CC1(C)OCCn2c1nc1c(N3CCOCC3)nc(-c3cnc(N)nc3)nc12 [GDC-0084] = 3

###

Experiment: Phase I dose-escalation study, plasma pharmacokinetics
Format: in vivo, human
Conditions: human, plasma, oral; 30 mg once daily, multiple doses, Cycle 1 Day 15, n = 5; read-out: AUC0-24 (μM*hr), Mean
measurement_kind: AUC(0-t) (µM·h)

• CC1(C)OCCn2c1nc1c(N3CCOCC3)nc(-c3cnc(N)nc3)nc12 = 5.67

Measured values drawn from patent US11643421B2 for this set.
